Experiment: Stability in simulated gastric fluid
Assay type: in vitro ADME
Details: 2 μM, 37° C., pH 1.5
Where a SMILES comes first, the peptide text is derived from it. [ ]: non-standard residue; d: D form. ξ: configuration not given here. ξαMeBip(2'-Et,4'-OMe) = CCc1cc(OC)ccc1-c1ccc(CC(C)(N)C(=O)O)cc1; ξαMePhe(2,6-F2) = CC(N)(Cc1c(F)cccc1F)C(=O)O; ξαMePhe(2-F) = CC(N)(Cc1ccccc1F)C(=O)O; ξhhPhe = NC(CCCc1ccccc1)C(=O)O; ξαMeD = CC(N)(CC(=O)O)C(=O)O; Aib = CC(C)(N)C(=O)O
quantity.kind: half-life (t1/2) in simulated gastric fluid

CCc1cc(OC)ccc1-c1ccc(CC(C)(NC(=O)C(C)(CC(=O)O)NC(=O)[C@H](CO)NC(=O)[C@@H](NC(=O)C(C)(Cc2ccccc2F)NC(=O)[C@@H](NC(=O)CNC(=O)[C@H](CCC(=O)O)NC(=O)[C@H](CO)NC(=O)[C@H](Cc2c[nH]cn2)NC(=O)[C@@H](N)C(C)C)[C@@H](C)O)[C@@H](C)O)C(=O)NC(CCCc2ccccc2)C(N)=O)cc1 (some centres unmarked) [compound 69] (H-VHSEGT[ξαMePhe(2-F)]TS[ξαMeD][ξαMeBip(2'-Et,4'-OMe)][ξhhPhe]-NH2) :: (8) h
CCc1cc(OC)ccc1-c1ccc(CC(C)(NC(=O)C(C)(CC(=O)O)NC(=O)[C@H](CO)NC(=O)[C@@H](NC(=O)C(C)(Cc2c(F)cccc2F)NC(=O)[C@@H](NC(=O)CNC(=O)[C@H](CCC(N)=O)NC(=O)C(C)(C)NC(=O)[C@H](Cc2c[nH]cn2)NC(=O)[C@@H](N)C(C)C)[C@@H](C)O)[C@@H](C)O)C(=O)NC(CCCc2ccccc2)C(N)=O)cc1 (some centres unmarked) [compound 75] (H-VH[Aib]QGT[ξαMePhe(2,6-F2)]TS[ξαMeD][ξαMeBip(2'-Et,4'-OMe)][ξhhPhe]-NH2) :: (8) h

---

Target: DPP IV enzyme (Homo sapiens)
Sequence (P27487 whole entry, species assumed): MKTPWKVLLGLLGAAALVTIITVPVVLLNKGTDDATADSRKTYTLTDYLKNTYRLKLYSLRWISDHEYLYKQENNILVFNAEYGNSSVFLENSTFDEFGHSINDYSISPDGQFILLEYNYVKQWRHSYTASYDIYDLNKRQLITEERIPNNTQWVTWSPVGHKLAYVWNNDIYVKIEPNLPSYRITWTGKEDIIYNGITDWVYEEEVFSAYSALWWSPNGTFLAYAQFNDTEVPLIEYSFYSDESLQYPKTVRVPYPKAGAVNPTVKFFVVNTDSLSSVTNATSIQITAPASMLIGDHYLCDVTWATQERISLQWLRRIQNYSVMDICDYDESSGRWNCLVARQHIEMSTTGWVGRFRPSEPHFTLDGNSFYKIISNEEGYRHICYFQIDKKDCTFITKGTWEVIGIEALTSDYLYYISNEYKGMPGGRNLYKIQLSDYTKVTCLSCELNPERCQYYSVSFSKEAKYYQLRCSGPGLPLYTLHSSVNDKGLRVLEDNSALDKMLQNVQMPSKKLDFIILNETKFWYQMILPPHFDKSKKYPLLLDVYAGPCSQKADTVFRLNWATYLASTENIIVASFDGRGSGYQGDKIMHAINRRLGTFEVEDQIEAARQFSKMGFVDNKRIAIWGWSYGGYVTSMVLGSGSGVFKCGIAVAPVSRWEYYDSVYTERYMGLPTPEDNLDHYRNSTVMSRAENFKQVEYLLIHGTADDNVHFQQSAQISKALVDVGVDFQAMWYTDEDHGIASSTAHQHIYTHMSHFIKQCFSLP
Test: Stability against DPP IV enzyme
Assay type: in vitro ADME
Conditions: 2 μM, 37° C., 24 h
Where a SMILES comes first, the peptide text is derived from it. [ ]: non-standard residue; d: D form. ξ: configuration not given here. ξαMeBip(2'-Et,4'-OMe) = CCc1cc(OC)ccc1-c1ccc(CC(C)(N)C(=O)O)cc1; ξBip(2'-Et-4'-OMe) = CCc1cc(OC)ccc1-c1ccc(CC(N)C(=O)O)cc1; ξαMePhe(2,6-F2) = CC(N)(Cc1c(F)cccc1F)C(=O)O; ξαMe(hhPhe) = CC(N)(CCCc1ccccc1)C(=O)O; ξαMePhe(2-F) = CC(N)(Cc1ccccc1F)C(=O)O; ξhhPhe = NC(CCCc1ccccc1)C(=O)O; ξαMeD = CC(N)(CC(=O)O)C(=O)O; ξαMeP = CC1(C(=O)O)CCCN1; ξαMeS = CC(N)(CO)C(=O)O; Aib = CC(C)(N)C(=O)O
% degradation in 24 h when incubated with DPP-IV enzyme values, listed per item
Field format: number, assumed %, no unit text.

CCc1cc(OC)ccc1-c1ccc(CC(NC(=O)[C@H](CC(=O)O)NC(=O)[C@H](CO)NC(=O)[C@@H](NC(=O)C(C)(Cc2ccccc2F)NC(=O)[C@@H](NC(=O)CNC(=O)[C@H](CCC(N)=O)NC(=O)[C@H](C)NC(=O)[C@H](Cc2c[nH]cn2)NC(=O)[C@@H](N)C(C)C)[C@@H](C)O)[C@@H](C)O)C(=O)NC(C)(CCCc2ccccc2)C(N)=O)cc1 (some centres unmarked) [compound 92] (H-VHAQGT[ξαMePhe(2-F)]TSD[ξBip(2'-Et-4'-OMe)][ξαMe(hhPhe)]-NH2) :: 00
CCc1cc(OC)ccc1-c1ccc(CC(C)(NC(=O)C(C)(CC(=O)O)NC(=O)[C@H](CO)NC(=O)[C@@H](NC(=O)C(C)(Cc2ccccc2F)NC(=O)[C@@H](NC(=O)CNC(=O)[C@H](CCC(N)=O)NC(=O)C(C)(C)NC(=O)[C@H](Cc2c[nH]cn2)NC(=O)[C@@H](N)C(C)C)[C@@H](C)O)[C@@H](C)O)C(=O)NC(C)(CCCc2ccccc2)C(N)=O)cc1 (some centres unmarked) [compound 191] (H-VH[Aib]QGT[ξαMePhe(2-F)]TS[ξαMeD][ξαMeBip(2'-Et,4'-OMe)][ξαMe(hhPhe)]-NH2) :: 76
CCc1cc(OC)ccc1-c1ccc(CC(C)(NC(=O)[C@H](CC(=O)O)NC(=O)[C@H](CO)NC(=O)[C@@H](NC(=O)C(C)(Cc2c(F)cccc2F)NC(=O)[C@@H](NC(=O)CNC(=O)[C@H](CCC(N)=O)NC(=O)C2(C)CCCN2C(=O)[C@H](Cc2c[nH]cn2)NC(=O)[C@@H](N)C(C)C)[C@@H](C)O)[C@@H](C)O)C(=O)NC(CCCc2ccccc2)C(N)=O)cc1 (some centres unmarked) [compound 28] (H-VH[ξαMeP]QGT[ξαMePhe(2,6-F2)]TSD[ξαMeBip(2'-Et,4'-OMe)][ξhhPhe]-NH2) :: 70
CCc1cc(OC)ccc1-c1ccc(CC(C)(NC(=O)[C@H](CC(=O)O)NC(=O)[C@H](CO)NC(=O)[C@@H](NC(=O)C(C)(Cc2c(F)cccc2F)NC(=O)[C@@H](NC(=O)CNC(=O)[C@H](CCC(=O)O)NC(=O)C(C)(C)NC(=O)[C@H](Cc2c[nH]cn2)NC(=O)[C@@H](N)C(C)C)[C@@H](C)O)[C@@H](C)O)C(=O)NC(CCCc2ccccc2)C(N)=O)cc1 (some centres unmarked) [compound 31] (H-VH[Aib]EGT[ξαMePhe(2,6-F2)]TSD[ξαMeBip(2'-Et,4'-OMe)][ξhhPhe]-NH2) :: 86

// next item, % degradation in 24 h when incubated with DPP-IV enzyme requested
Incoming: Consider the molecule CCc1cc(OC)ccc1-c1ccc(CC(C)(NC(=O)[C@H](CC(=O)O)NC(=O)C(C)(CO)NC(=O)[C@@H](NC(=O)C(C)(Cc2c(F)cccc2F)NC(=O)[C@@H](NC(=O)CNC(=O)[C@H](CCC(=O)O)NC(=O)[C@H](C)NC(=O)[C@H](Cc2c[nH]cn2)NC(=O)[C@@H](N)C(C)C)[C@@H](C)O)[C@@H](C)O)C(=O)NC(C)(CCCc2ccccc2)C(N)=O)cc1 (some centres unmarked) [compound 178] (H-VHAEGT[ξαMePhe(2,6-F2)]T[ξαMeS]D[ξαMeBip(2'-Et,4'-OMe)][ξαMe(hhPhe)]-NH2) and give its measured % degradation in 24 h when incubated with DPP-IV enzyme.
Outgoing: 00
